Assay: Assay Example 4: distribution in rat plasma and liver tissue
Assay type: in vivo
Conditions: male, oral, 10 mg/kg intragastric, 0.5 h, liver/plasma, read-out: Ratio (L/P)
Description: Eighteen male rats were randomly divided into two groups of 9 rats each, fasted (free access to water) overnight, and then intragastrically administered with 10 mg/kg of Compound 1a and Compound 6b, respectively. The subject animals were sacrificed by bloodletting at 0.5 h, 3 h and 8 h after administration. About 1 mL of blood was taken, and anticoagulated with EDTA-K2. […]
Catalogue of Kp at 0.5 h values
readoutKind: Kp at 0.5 h

>>> endpointvalue("COC(=O)N[C@H](C(=O)N1CCC[C@H]1C(=O)Nc1ccc([C@H]2CC[C@H](c3ccc4nc([C@@H]5CCCN5C(=O)[C@@H](NC(=O)OC)[C@@H](C)OC)[nH]c4c3)N2c2cc(F)c(N3CC[Si](C)(C)CC3)c(F)c2)cc1)[C@@H](C)OC")
10.7
>>> endpointvalue("COC(=O)N[C@H](C(=O)N1CCC[C@H]1C(=O)Nc1ccc([C@@H]2CC[C@@H](c3ccc(NC(=O)[C@@H]4CCCN4C(=O)[C@@H](NC(=O)OC)[C@@H](C)OC)cc3)N2c2cc(F)c(N3CC[Si](C)(C)CC3)c(F)c2)cc1)[C@@H](C)OC")
7.01

----------
Catalogue of Kp at 3 h values
Assay: Assay Example 4: distribution in rat plasma and liver tissue
Type: in vivo
Settings: male, oral, 10 mg/kg intragastric, 3 h, liver/plasma, read-out: Ratio (L/P)
Experimental: Eighteen male rats were randomly divided into two groups of 9 rats each, fasted (free access to water) overnight, and then intragastrically administered with 10 mg/kg of Compound 1a and Compound 6b, respectively. The subject animals were sacrificed by bloodletting at 0.5 h, 3 h and 8 h after administration. About 1 mL of blood was taken, and anticoagulated with EDTA-K2. […]
readoutKind: Kp at 3 h

>>> endpointvalue("COC(=O)N[C@H](C(=O)N1CCC[C@H]1C(=O)Nc1ccc([C@H]2CC[C@H](c3ccc4nc([C@@H]5CCCN5C(=O)[C@@H](NC(=O)OC)[C@@H](C)OC)[nH]c4c3)N2c2cc(F)c(N3CC[Si](C)(C)CC3)c(F)c2)cc1)[C@@H](C)OC [Compound 6b]")
14.2
>>> endpointvalue("COC(=O)N[C@H](C(=O)N1CCC[C@H]1C(=O)Nc1ccc([C@@H]2CC[C@@H](c3ccc(NC(=O)[C@@H]4CCCN4C(=O)[C@@H](NC(=O)OC)[C@@H](C)OC)cc3)N2c2cc(F)c(N3CC[Si](C)(C)CC3)c(F)c2)cc1)[C@@H](C)OC [Compound 1a]")
24.4

----------
test system: HCV GT1b/6a NS5A chimeric replicon; test: Assay Example 1: activity against HCV GT1b/6a NS5A chimeric replicon; format: cell-based; details: Hepatitis C virus, Huh-7, 72 h, read-out: EC50 value GT1b/6a NS5A chimeric replicon
pEC50: −log10 of the molar value.
Decide using pEC50: a value greater than or equal to 10 is satisfied, a smaller one is not satisfied.

>>> category("COC(=O)N[C@H](C(=O)N1CCC[C@H]1C(=O)Nc1ccc([C@@H]2CC[C@@H](c3ccc(NC(=O)[C@@H]4CCCN4C(=O)[C@@H](NC(=O)OC)[C@@H](C)OC)cc3)N2c2ccc(N3CC[Si](C)(C)CC3)c(F)c2)cc1)[C@@H](C)OC [Compound 2a]")
"not satisfied"
>>> category("COC(=O)N[C@H](C(=O)N1CCC[C@H]1C(=O)Nc1ccc([C@H]2CC[C@H](c3ccc(NC(=O)[C@@H]4CCCN4C(=O)[C@@H](NC(=O)OC)[C@@H](C)OC)cc3)N2c2ccc(N3CC[Si](C)(C)CC3)c(F)c2)cc1)[C@@H](C)OC [Compound 2b]")
"not satisfied"
>>> category("COC(=O)N[C@H](C(=O)N1CCC[C@H]1c1nc2cc([C@@H]3CC[C@@H](c4ccc5[nH]c([C@@H]6CCCN6C(=O)[C@@H](NC(=O)OC)[C@@H](C)OC)nc5c4)N3c3cc(F)c(N4CC[Si](C)(C)CC4)c(F)c3)ccc2[nH]1)[C@@H](C)OC [Compound 4a]")
"satisfied"
>>> category("COC(=O)N[C@H](C(=O)N1CCC[C@H]1C(=O)Nc1ccc([C@@H]2CC[C@@H](c3ccc4nc([C@@H]5CCCN5C(=O)[C@@H](NC(=O)OC)[C@@H](C)OC)[nH]c4c3)N2c2cc(F)c(N3CC[Si](C)(C)CC3)c(F)c2)cc1)[C@@H](C)OC [Compound 6a]")
"not satisfied"
>>> category("COC(=O)N[C@H](C(=O)N1CCC[C@H]1C(=O)Nc1ccc([C@H]2CC[C@H](c3ccc4nc([C@@H]5CCCN5C(=O)[C@@H](NC(=O)OC)[C@@H](C)OC)[nH]c4c3)N2c2cc(F)c(N3CC[Si](C)(C)CC3)c(F)c2)cc1)[C@@H](C)OC [Compound 6b]")
"satisfied"
>>> category("COC(=O)N[C@H](C(=O)N1CCC[C@H]1c1nc2cc([C@H]3CC[C@H](c4ccc5[nH]c([C@@H]6CCCN6C(=O)[C@@H](NC(=O)OC)[C@@H](C)OC)nc5c4)N3c3ccc(N4CC[Si](C)(C)CC4)c(F)c3)ccc2[nH]1)[C@@H](C)OC [Compound 5b]")
"satisfied"
>>> category("COC(=O)N[C@H](C(=O)N1CCC[C@H]1c1nc2cc([C@H]3CC[C@H](c4ccc5[nH]c([C@@H]6CCCN6C(=O)[C@@H](NC(=O)OC)[C@@H](C)OC)nc5c4)N3c3cc(F)c(N4CC[Si](C)(C)CC4)c(F)c3)ccc2[nH]1)[C@@H](C)OC [Compound 4b]")
"satisfied"
>>> category("COC(=O)N[C@H](C(=O)N1CCC[C@H]1C(=O)Nc1ccc([C@@H]2CC[C@@H](c3ccc(NC(=O)[C@@H]4CCCN4C(=O)[C@@H](NC(=O)OC)[C@@H](C)OC)cc3)N2c2cc(F)c(N3CC[Si](C)(C)CC3)c(F)c2)cc1)[C@@H](C)OC [Compound 1a]")
"satisfied"

----------
test: Assay Example 5: distribution in mouse plasma and liver tissue; format: in vivo; conditions: male, oral, 10 mg/kg intragastric, 0.5 h, liver/plasma, read-out: Ratio (L/P)
readoutKind: Kp at 0.5 h

>>> endpointvalue("COC(=O)N[C@H](C(=O)N1CCC[C@H]1C(=O)Nc1ccc([C@H]2CC[C@H](c3ccc4nc([C@@H]5CCCN5C(=O)[C@@H](NC(=O)OC)[C@@H](C)OC)[nH]c4c3)N2c2cc(F)c(N3CC[Si](C)(C)CC3)c(F)c2)cc1)[C@@H](C)OC")
1.78
>>> endpointvalue("COC(=O)N[C@H](C(=O)N1CCC[C@H]1C(=O)Nc1ccc([C@@H]2CC[C@@H](c3ccc(NC(=O)[C@@H]4CCCN4C(=O)[C@@H](NC(=O)OC)[C@@H](C)OC)cc3)N2c2cc(F)c(N3CC[Si](C)(C)CC3)c(F)c2)cc1)[C@@H](C)OC")
2.43

----------
Assay: Assay Example 5: distribution in mouse plasma and liver tissue
Assay type: in vivo
Details: male, oral, 10 mg/kg intragastric, 8 h, liver/plasma, read-out: Ratio (L/P)
Experimental: Eighteen male mice were randomly divided into two groups, fasted (free access to water) overnight, and then intragastrically administered with 10 mg/kg of Compound 1a and Compound 6b, respectively. The subject animals were sacrificed by bloodletting at 0.5 h, 3 h and 8 h after administration. About 1 mL of blood was taken, and anticoagulated with EDTA-K2. […]
readoutKind: Kp at 8 h

>>> endpointvalue("COC(=O)N[C@H](C(=O)N1CCC[C@H]1C(=O)Nc1ccc([C@H]2CC[C@H](c3ccc4nc([C@@H]5CCCN5C(=O)[C@@H](NC(=O)OC)[C@@H](C)OC)[nH]c4c3)N2c2cc(F)c(N3CC[Si](C)(C)CC3)c(F)c2)cc1)[C@@H](C)OC")
1.76
>>> endpointvalue("COC(=O)N[C@H](C(=O)N1CCC[C@H]1C(=O)Nc1ccc([C@@H]2CC[C@@H](c3ccc(NC(=O)[C@@H]4CCCN4C(=O)[C@@H](NC(=O)OC)[C@@H](C)OC)cc3)N2c2cc(F)c(N3CC[Si](C)(C)CC3)c(F)c2)cc1)[C@@H](C)OC")
5.67
